Tested on: HAP1 MTAP-intact cell line
Test: SDMA in-cell western assay, HAP1 MTAP-intact
Type: cell-based
Conditions: Homo sapiens, HAP1, SDMA in-cell western, HAP1 MTAP-intact; read-out: MTAP HAP1 intact IC50
pIC50: −log10 of the molar value.
measured_metric: pIC50

// known answers, use as guide
[
  {
    "compound": "C[C@@H]1CC[C@@H](c2ccc(CC3CC3)cc2)N(C(=O)C(=O)Nc2cncc(C(N)=O)c2)C1 (racemic) [Compound 273]",
    "measured_metric": "pIC50",
    "observed_result": "< 6.00"
  },
  {
    "compound": "CCc1cc(NC(=O)C(=O)N2C[C@@H](C)CC[C@@H]2c2ccc3c(c2)C(=O)NC3)cnc1N (single isomer, unassigned) [Compound 700]",
    "measured_metric": "pIC50",
    "observed_result": "< 6.00"
  },
  {
    "compound": "CCc1cc(NC(=O)C(=O)N2C[C@@H](C)CC[C@@H]2c2cccc(C3CCN(C)CC3)c2)cnc1N [Compound 1363]",
    "measured_metric": "pIC50",
    "observed_result": "6.00 to 7.00"
  },
  {
    "compound": "Cc1cc(NC(=O)C(=O)N2C[C@H](C)CC[C@H]2c2cn[nH]c2)cnc1N (single isomer, unassigned) [Compound 969]",
    "measured_metric": "pIC50",
    "observed_result": "< 6.00"
  },
  {
    "compound": "COc1ncc(NC(=O)C(=O)N2C[C@H](C)C(F)(F)C[C@H]2c2ccc(F)cc2)cc1C(N)=O (single isomer, unassigned) [Compound 1068]",
    "measured_metric": "pIC50",
    "observed_result": "< 6.00"
  }
]

compound Cc1cncc(NC(=O)C(=O)N2C[C@H](C)CC[C@H]2c2cccc(C)c2)c1 (racemic) [Compound 8] , pIC50 observed: < 6.00

pIC50 reported for this compound Cc1cccc([C@@H]2CC[C@@H](C)CN2C(=O)C(=O)Nc2cncc(C(N)=O)c2)c1 (single isomer, unassigned) [Compound 227] : < 6.00

###

Target: PRMT5 (Homo sapiens, UniProt O14744)
Construct: purchased Viva (custom protein)
Sequence (O14744 whole entry): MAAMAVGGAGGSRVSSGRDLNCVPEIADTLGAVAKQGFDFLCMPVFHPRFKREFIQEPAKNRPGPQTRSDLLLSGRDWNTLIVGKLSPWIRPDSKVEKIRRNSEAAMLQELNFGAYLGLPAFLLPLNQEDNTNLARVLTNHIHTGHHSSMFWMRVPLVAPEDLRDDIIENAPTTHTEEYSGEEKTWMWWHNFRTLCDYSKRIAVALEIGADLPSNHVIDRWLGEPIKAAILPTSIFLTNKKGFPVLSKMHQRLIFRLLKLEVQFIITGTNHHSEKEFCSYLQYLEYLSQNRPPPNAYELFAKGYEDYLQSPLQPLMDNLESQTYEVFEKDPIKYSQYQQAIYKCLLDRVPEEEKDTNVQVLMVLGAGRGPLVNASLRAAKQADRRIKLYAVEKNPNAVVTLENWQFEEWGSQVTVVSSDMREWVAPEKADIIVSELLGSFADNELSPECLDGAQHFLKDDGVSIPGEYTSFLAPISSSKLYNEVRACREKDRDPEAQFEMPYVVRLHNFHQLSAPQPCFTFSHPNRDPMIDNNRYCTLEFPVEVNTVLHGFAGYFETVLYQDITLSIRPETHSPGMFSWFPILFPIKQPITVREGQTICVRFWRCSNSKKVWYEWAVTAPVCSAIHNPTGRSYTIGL
Sequence (Q9BQA1 whole entry partner): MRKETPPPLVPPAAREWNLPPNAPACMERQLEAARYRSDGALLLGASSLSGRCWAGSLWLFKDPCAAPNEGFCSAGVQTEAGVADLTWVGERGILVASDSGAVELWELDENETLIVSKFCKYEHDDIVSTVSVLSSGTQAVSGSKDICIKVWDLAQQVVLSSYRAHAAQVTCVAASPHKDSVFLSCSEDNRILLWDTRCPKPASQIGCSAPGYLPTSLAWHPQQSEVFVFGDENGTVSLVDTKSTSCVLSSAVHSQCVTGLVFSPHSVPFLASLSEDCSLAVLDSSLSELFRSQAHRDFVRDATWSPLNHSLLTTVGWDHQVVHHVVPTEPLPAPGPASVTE
Experiment: PRMT5 biochemical IC50 assay with no cofactor
Conditions: PRMT5, no cofactor; read-out: No Cofactor/ rel IC50
measured_metric: IC50

[
  {
    "compound": "Cc1cc(NC(=O)C(=O)N2C[C@H](C)CC[C@H]2C2CCCCC2)cnc1N (single isomer, unassigned) [Compound 148]",
    "IC50": "50 to 500 nM"
  },
  {
    "compound": "CCc1cc(NC(=O)C(=O)N2C[C@@H](C)CC[C@@H]2c2ccc3sc(C4CCNCC4)nc3c2)cnc1N [Compound 1240]",
    "IC50": "< 50 nM"
  },
  {
    "compound": "Cc1cc(NC(=O)C(=O)N2C[C@H](C)CC[C@H]2c2ccc(CCN(C)C)cc2)cnc1N (single isomer, unassigned) [Compound 1358]",
    "IC50": "< 50 nM"
  },
  {
    "compound": "CC(=O)N1CCC(c2cccc(C3CCCCN3C(=O)C(=O)Nc3cnc(N)c(C)c3)c2)CC1 (racemic) [Compound 95]",
    "IC50": "50 to 500 nM"
  },
  {
    "compound": "CCc1cc(NC(=O)C(=O)N2C[C@@H](C)CC[C@@H]2c2ccc3cc(C)c(C4CCN(C)CC4)nc3c2)cnc1N [Compound 1368]",
    "IC50": "< 50 nM"
  }
]

Please turn your attention to the following entry.
Lab note: measured IC50 of CCc1cc(NC(=O)C(=O)N2C[C@@H](C)CC[C@@H]2c2ccc3sc(C4(CN(C)C)CC4)nc3c2)cnc1N [Compound 1347] was < 50 nM

Reference source for all entries: patent US11999727B2
